Biological target: human OGG1 protein (Homo sapiens, UniProt O15527)
Sequence (O15527 whole entry): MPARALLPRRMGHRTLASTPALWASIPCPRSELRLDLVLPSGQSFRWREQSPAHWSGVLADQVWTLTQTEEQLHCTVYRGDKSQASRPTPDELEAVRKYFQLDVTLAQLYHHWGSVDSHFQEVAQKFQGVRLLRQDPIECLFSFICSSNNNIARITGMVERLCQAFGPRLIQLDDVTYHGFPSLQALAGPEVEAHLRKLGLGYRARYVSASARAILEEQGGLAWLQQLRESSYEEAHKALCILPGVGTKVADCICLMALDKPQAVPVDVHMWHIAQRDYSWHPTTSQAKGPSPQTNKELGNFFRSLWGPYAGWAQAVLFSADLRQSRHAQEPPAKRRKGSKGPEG
Experimental Readout: IC50 (µM)
One number for each entry, in µM.

Noted for O=C(O)C1=CC(=C(c2ccc(O)c(C(=O)O)c2)c2ccc(O)c(C(=O)O)c2)C=CC1=O [ATA, aurintricarboxylic acid] : its IC50 reads 4.5

----------
Molecular target: UDG in human DLD1 colon cancer cell lysate (Homo sapiens, UniProt P13051)
Construct: IC50 in DLD1 UDG containing cell lysate; other: estimated; effect on 23mer ssDNA generation; DLD1 cell extracts; extracts where UDG was present
Sequence (P13051 45-313 limits assumed): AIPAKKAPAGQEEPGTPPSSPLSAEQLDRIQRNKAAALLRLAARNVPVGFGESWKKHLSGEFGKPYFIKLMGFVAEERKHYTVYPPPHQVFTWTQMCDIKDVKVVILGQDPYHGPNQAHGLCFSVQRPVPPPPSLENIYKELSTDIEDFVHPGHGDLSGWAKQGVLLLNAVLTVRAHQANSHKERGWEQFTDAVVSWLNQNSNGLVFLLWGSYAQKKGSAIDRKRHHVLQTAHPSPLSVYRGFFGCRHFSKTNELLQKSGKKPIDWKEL
Experiment: DNA cleavage assay with cell-free protein extracts from DLD1 cells
Conditions: read-out: IC50 in DLD1 UDG containing cell lysate
Experimental Readout: IC50

Tested on UDG in human DLD1 colon cancer cell lysate (Homo sapiens, UniProt P13051): O=C(O)C1=CC(=C(c2ccc(O)c(C(=O)O)c2)c2ccc(O)c(C(=O)O)c2)C=CC1=O . Observed IC50: ~32.5 µM
